# Target Or Test System: T1, β-catenin (UniProt P35222 1-781, limits assumed)
# T1 construct: also called beta-catenin
# T1 sequence (looked up): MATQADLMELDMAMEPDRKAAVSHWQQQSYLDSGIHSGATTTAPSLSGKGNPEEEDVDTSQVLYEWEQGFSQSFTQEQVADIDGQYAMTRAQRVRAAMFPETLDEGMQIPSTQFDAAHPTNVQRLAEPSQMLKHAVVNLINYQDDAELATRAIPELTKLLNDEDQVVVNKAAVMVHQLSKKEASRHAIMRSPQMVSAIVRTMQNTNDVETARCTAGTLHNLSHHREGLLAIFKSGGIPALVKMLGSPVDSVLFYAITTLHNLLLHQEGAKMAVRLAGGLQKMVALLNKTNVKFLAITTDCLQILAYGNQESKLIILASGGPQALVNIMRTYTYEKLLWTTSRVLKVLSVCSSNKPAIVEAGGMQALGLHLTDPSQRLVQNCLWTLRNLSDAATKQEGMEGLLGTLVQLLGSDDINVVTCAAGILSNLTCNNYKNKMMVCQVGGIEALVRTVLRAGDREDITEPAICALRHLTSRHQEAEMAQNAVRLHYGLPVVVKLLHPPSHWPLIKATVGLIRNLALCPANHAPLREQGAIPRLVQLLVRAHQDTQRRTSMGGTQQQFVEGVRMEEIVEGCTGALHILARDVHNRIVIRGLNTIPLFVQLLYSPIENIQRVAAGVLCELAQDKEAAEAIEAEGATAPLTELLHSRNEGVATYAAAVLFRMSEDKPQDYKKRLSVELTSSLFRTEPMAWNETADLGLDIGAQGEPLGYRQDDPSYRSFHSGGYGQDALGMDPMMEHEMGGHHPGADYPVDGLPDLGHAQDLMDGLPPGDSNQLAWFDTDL
# Assay Procedure: ALPHA Screen (BCL9/β-catenin);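 also: bead proximity readout with the polypeptide linked to donor beads and β-catenin fixed on acceptor beads, their binding bringing the beads close enough to emit signal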
Bridges are numbered along the chain shown (N, C = ends). Where no end group is shown, it is not given here. [ ]: non-standard residue; d: D form. 2Nal = N[C@@H](Cc1ccc2ccccc2c1)C(=O)O; NMeR = CN[C@@H](CCCNC(=N)N)C(=O)O; Cba = N[C@@H](CC1CCC1)C(=O)O; S5 = C=CCCC[C@](C)(N)C(=O)O; Nle = CCCC[C@H](N)C(=O)O; Ac4c = NC1(C(=O)O)CCC1
pIC50 values, listed per item
Note on units: pIC50 is unitless, being -log10 of a concentration expressed in mol/L.

Binder	pIC50
Ac-HRERSLQTL[NMeR][S5]IQR[S5][Cba][2Nal]-OH (staple 11-15; not fully specified) [SEQ ID NO: 152]	6.10
Ac-[dL]QTIR[S5]IQR[S5]L[2Nal]-NH2 (staple 6-10) [SEQ ID NO: 102]	5.16
Ac-LQT[dL]R[S5]IQR[S5]L[2Nal]-NH2 (staple 6-10) [SEQ ID NO: 103]	5.54
Ac-LQTLR[S5]IQR[S5]A[2Nal]-NH2 (staple 6-10) [SEQ ID NO: 77]	5.11
LQTLR[Nle]IQR[Nle]L[2Nal]P [SEQ ID NO: 56]	4.99

Now turn to the next binder.
I am curious: what pIC50 value has been reported for Ac-HRQRSLQTLR[S5]IQR[S5][Ac4c][2Nal]-NH2 (staple 11-15) [SEQ ID NO: 176] ?
6.63
